assay: self-splicing fitness, log relative to wild type (ln ratio); higher = more splicing; Tetrahymena group I intron in knt gene, E. coli kanamycin selection, DiMSum; sequences stand for … in CUCUCU…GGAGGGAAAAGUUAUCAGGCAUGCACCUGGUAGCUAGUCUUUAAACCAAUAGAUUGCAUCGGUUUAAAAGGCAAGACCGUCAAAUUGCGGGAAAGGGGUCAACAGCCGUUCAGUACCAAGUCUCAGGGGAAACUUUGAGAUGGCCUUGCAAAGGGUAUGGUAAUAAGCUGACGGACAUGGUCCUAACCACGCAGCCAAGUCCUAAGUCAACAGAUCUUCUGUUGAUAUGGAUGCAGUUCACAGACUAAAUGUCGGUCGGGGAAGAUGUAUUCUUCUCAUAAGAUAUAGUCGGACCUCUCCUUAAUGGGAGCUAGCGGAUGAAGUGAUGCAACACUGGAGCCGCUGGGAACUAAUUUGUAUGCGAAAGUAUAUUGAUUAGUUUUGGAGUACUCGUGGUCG; conditions: 37 °C;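 note: selection with 25 µg/mL kanamycin versus none on LB agar overnight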
Recorded self-splicing fitness (ln) for the following sequences
property-label: self-splicing fitness (ln)

>>> print(df.to_string())
       ordered_residues              property_label  result
0  UGCGAGCAAUAUUACGGAUG  self-splicing fitness (ln)   -2.02
1  CUGUAGCAAUAUUACGACAG  self-splicing fitness (ln)   -1.97
2  GGCUAGCAAUAUUACGUGAC  self-splicing fitness (ln)   -1.02
3  GUAUAGCAAUAUUACGCACG  self-splicing fitness (ln)  -0.994
4  UGCGAGCAAUAUUACGAAGA  self-splicing fitness (ln)   -1.97
5  UCAUAGCAAUAUUACGCUUG  self-splicing fitness (ln)      -2

###

test: self-splicing fitness, log relative to wild type (ln ratio); higher = more splicing; Tetrahymena group I intron in knt gene, E. coli kanamycin selection, DiMSum; sequences stand for … in CUCUCU…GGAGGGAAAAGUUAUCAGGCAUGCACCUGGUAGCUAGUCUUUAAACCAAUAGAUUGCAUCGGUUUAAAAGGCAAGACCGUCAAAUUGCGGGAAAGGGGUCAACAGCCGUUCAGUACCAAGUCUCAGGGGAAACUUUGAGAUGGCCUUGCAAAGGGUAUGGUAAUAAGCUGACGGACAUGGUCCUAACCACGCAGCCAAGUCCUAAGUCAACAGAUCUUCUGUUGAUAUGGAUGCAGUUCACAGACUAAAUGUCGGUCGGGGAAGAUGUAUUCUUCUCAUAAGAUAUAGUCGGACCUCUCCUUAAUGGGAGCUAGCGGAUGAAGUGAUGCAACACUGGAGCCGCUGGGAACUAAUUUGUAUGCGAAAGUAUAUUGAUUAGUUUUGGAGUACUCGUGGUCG; settings: 30 °C
property-label: self-splicing fitness (ln)

        ordered_residues              property_label  result_number
 0  GCCAAGCAAUAUUACGGUAG  self-splicing fitness (ln)          -3.67
 1  GCACAGCAAUAUUACGGAAU  self-splicing fitness (ln)          -1.08
 2  ACCUAGCAAUAUUACGUGGG  self-splicing fitness (ln)          -3.54
 3  AGAGAGCAAUAUUACGAGGU  self-splicing fitness (ln)          -2.98
 4  UACUAGCAAUAUUACGAGGG  self-splicing fitness (ln)           -2.3
 5  UCCAAGCAAUAUUACGAGGA  self-splicing fitness (ln)           -2.7
 6  GAGAAGCAAUAUUACGCCAA  self-splicing fitness (ln)         -0.505
 7  AUACAGCAAUAUUACGUCAC  self-splicing fitness (ln)          -3.13
 8  GCUUAGCAAUAUUACGAGAU  self-splicing fitness (ln)          -1.36
 9  CCGGAGCAAUAUUACGCGCC  self-splicing fitness (ln)          -1.89
10  GCGAAGCAAUAUUACGUCUA  self-splicing fitness (ln)          -1.16
11  GCACAGCAAUAUUACGCGUU  self-splicing fitness (ln)          -1.29
12  CGUCAGCAAUAUUACGUACC  self-splicing fitness (ln)          -1.33
13  ACGCAGCAAUAUUACGAUUA  self-splicing fitness (ln)          -1.54
14  AACAAGCAAUAUUACGAUAG  self-splicing fitness (ln)          -3.24
15  UCCCAGCAAUAUUACGGUGG  self-splicing fitness (ln)          -3.65
16  GCCGAGCAAUAUUACGGUUU  self-splicing fitness (ln)          -2.38
17  UAAAAGCAAUAUUACGGGCG  self-splicing fitness (ln)        -0.0526
18  CUGAAGCAAUAUUACGUGGC  self-splicing fitness (ln)          -1.58
19  CCCUAGCAAUAUUACGGGAU  self-splicing fitness (ln)          -3.82
20  AAAAAGCAAUAUUACGUCUC  self-splicing fitness (ln)          -1.51
21  UGUCAGCAAUAUUACGCCUG  self-splicing fitness (ln)          0.351
22  ACCAAGCAAUAUUACGACAG  self-splicing fitness (ln)          -1.81
23  GAGAAGCAAUAUUACGUGGG  self-splicing fitness (ln)          -2.74
24  GAGUAGCAAUAUUACGAGCC  self-splicing fitness (ln)          -1.67
25  GGGGAGCAAUAUUACGAACU  self-splicing fitness (ln)          -2.75
26  AGAGAGCAAUAUUACGCGCA  self-splicing fitness (ln)             -3
27  UGGUAGCAAUAUUACGAUAA  self-splicing fitness (ln)          -1.45
28  AGCAAGCAAUAUUACGCAGA  self-splicing fitness (ln)          -2.73
29  ACGGAGCAAUAUUACGUCAC  self-splicing fitness (ln)          -3.48
